Provide the reported RPA-T4-PE-Dazzle 594 signal with supernatant of each item.
testedTarget: T1, human CD4 on cells (SKW3 cells; human PBMCs) (human, UniProt P01730 26-458)
T1 construct: whole, on cells; SKW3 CD4 knockout cells served as the negative cell line in the primary screen; also called hCD4; huCD4
measurementProtocol: FACS binning on SKW3 cells; competitor RPA-T4-PE-Dazzle 594; background 783, max binding 15000

// query Which RPA-T4-PE-Dazzle 594 signal with supernatant value belongs to 75110_08D24A (antibody, V domains shown, Tested as non-clonal AlivaMab Mouse Kappa hybridoma supernatant (detected with anti-mouse Fc gamma and anti-human kappa)) VH: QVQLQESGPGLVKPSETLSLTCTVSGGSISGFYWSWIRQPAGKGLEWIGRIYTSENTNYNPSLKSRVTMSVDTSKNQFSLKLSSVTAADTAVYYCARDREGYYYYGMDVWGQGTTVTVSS VL: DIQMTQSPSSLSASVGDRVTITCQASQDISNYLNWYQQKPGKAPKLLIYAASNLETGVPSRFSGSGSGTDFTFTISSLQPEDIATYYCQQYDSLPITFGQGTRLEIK ?
// result 14600

// query Which RPA-T4-PE-Dazzle 594 signal with supernatant value belongs to 75110_08G08A (antibody, V domains shown, Tested as non-clonal AlivaMab Mouse Kappa hybridoma supernatant (detected with anti-mouse Fc gamma and anti-human kappa)) VH: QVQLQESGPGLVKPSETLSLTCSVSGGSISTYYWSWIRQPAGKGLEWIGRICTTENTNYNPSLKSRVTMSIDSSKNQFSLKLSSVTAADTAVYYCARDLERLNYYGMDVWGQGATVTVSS VL: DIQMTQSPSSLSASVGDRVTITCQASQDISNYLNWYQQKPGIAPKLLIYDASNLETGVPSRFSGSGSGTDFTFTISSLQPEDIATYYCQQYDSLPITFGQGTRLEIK ?
// result 16200

// query Which RPA-T4-PE-Dazzle 594 signal with supernatant value belongs to 75110_02N15A (antibody, V domains shown, Tested as non-clonal AlivaMab Mouse Kappa hybridoma supernatant (detected with anti-mouse Fc gamma and anti-human kappa)) VH: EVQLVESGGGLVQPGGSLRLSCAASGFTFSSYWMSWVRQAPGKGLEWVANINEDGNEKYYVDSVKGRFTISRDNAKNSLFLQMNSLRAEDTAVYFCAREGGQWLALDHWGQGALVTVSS VL: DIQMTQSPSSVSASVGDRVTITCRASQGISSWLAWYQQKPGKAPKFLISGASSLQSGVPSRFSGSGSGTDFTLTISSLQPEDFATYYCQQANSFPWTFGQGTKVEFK ?
// result 14200
